- assay_target: CDK4-NanoLuc fusion with CCND1 in 293T or 293 cells (Homo sapiens)
- Construct: host or cells: 293T (ATCC CRL-3216) or 293 (ATCC CRL-1573)
- experiment_description: NanoBRET Target Engagement (TE) Intracellular Kinase Assay, CDK4/CCND1
- Assay type: cell-based
- test_settings: NanoBRET TE intracellular kinase assay, 2-hour incubation, read-out: NanoBRET-CDK4/D1 IC50
endpoint_label: IC50 (µM)

structure: CC1(NC(=O)O[C@@H]2CC[C@H](c3cc(Nc4nccc5c(C=O)c(O)ccc45)n[nH]3)C2)CC1
IC50 [µM]: 4.1
//
structure: C[C@@H]1CCCN1C(=O)O[C@@H]1CC[C@H](c2cc(NC(=O)COc3cccc(O)c3C=O)n[nH]2)C1
IC50 [µM]: 9.2
//
structure: COc1cc(O)c(C=O)c(OCC(=O)Nc2cc([C@H]3CC[C@@H](OC(=O)N4CCC[C@@H]4C)C3)[nH]n2)c1
IC50 [µM]: 0.723
//
structure: COc1cc(OC)c(C=O)c(OCC(=O)Nc2cc([C@H]3C[C@@H](OC(=O)N4CCC4(C)C)C3)[nH]n2)c1
IC50 [µM]: 4.37
//
structure: Cc1cc(O)c(C=O)c(OCC(=O)Nc2cc([C@H]3CC[C@@H](OC(=O)N4CCC4(C)C)C3)[nH]n2)c1
IC50 [µM]: 3.47

A. CCCN(C)C(=O)O[C@@H]1CC[C@H](c2cc(NC(=O)COc3cc(OC)cc(O)c3C=O)n[nH]2)C1
B. COc1cc(O)c(C=O)c(OCC(=O)Nc2cc([C@H]3CC[C@@H](OC(=O)NCCOC(F)(F)F)C3)n[nH]2)c1
IN: Returns: the label, A or B , whose recorded IC50 is the lower number. Identify your selection by its label.
OUT: A

---

- assay_target: CDK1-NanoLuc fusion with CCNB1 in 293T or 293 cells (Homo sapiens, UniProt P06493)
- Construct: host or cells: 293T (ATCC CRL-3216) or 293 (ATCC CRL-1573)
- Sequence (P06493 whole entry, the tested form may be a part): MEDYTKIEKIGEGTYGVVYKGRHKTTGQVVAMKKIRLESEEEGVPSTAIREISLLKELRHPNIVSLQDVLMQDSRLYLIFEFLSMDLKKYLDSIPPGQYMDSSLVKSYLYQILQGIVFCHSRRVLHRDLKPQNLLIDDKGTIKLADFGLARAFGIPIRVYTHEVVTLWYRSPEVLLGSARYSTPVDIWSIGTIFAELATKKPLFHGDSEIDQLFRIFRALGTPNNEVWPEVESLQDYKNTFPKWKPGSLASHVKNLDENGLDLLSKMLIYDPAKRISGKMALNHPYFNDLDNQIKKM
- Sequence (P14635 whole entry partner, the tested form may be a part): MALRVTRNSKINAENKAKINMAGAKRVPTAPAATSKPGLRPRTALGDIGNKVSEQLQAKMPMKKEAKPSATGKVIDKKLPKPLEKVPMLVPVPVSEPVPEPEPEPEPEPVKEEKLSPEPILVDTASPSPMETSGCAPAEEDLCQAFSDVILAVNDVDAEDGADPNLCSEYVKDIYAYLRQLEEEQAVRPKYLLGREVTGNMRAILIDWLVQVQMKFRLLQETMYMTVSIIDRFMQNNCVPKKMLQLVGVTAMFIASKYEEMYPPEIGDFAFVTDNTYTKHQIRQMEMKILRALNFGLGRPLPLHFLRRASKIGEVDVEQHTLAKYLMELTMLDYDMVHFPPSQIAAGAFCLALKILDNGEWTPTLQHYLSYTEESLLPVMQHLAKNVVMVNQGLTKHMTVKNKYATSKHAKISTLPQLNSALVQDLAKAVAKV
- experiment_description: NanoBRET Target Engagement (TE) Intracellular Kinase Assay, CDK1/CCNB1
- Format: cell-based
- test_settings: NanoBRET TE intracellular kinase assay, 2-hour incubation, read-out: NanoBRET-CDK1/B1 IC50
pIC50: −log10 of the molar value.
endpoint_label: pIC50

structure: COc1cc(O)c(C=O)c(OCC(=O)Nc2cc([C@H]3CC[C@@H](OC(=O)N4C[C@@H]5CC[C@H]4C5)C3)[nH]n2)c1
assay_target: CDK1-NanoLuc fusion with CCNB1 in 293T or 293 cells (Homo sapiens, UniProt P06493)
measurement: 8.37

a. CC(C)NC(=O)O[C@@H]1CC[C@H](c2cc(Nc3cc(C#Cc4cccc(O)c4C=O)ccn3)n[nH]2)C1
b. C#C[C@H](C)NC(=O)O[C@@H]1CC[C@H](c2cc(NC(=O)COc3cc(OC)cc(O)c3C=O)n[nH]2)C1
IN: For this pair, a and b , which shows a numerically higher pIC50? Your answer should be the label attached to the chosen record.
OUT: b
(b: 7.82, a: 6.43)

---

- assay_target: CDK4-NanoLuc fusion with CCND1 in 293T or 293 cells (Homo sapiens, UniProt P11802)
- Construct: host or cells: 293T (ATCC CRL-3216) or 293 (ATCC CRL-1573)
- Sequence (P11802 whole entry, the tested form may be a part): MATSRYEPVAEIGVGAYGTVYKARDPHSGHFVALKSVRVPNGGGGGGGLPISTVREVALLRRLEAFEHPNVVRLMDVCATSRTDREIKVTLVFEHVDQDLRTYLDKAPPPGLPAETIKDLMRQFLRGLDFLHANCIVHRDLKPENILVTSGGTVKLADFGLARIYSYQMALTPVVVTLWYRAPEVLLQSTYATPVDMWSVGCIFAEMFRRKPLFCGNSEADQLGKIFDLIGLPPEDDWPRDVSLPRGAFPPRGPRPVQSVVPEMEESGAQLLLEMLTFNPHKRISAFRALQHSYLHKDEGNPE
- Sequence (P24385 whole entry partner, the tested form may be a part): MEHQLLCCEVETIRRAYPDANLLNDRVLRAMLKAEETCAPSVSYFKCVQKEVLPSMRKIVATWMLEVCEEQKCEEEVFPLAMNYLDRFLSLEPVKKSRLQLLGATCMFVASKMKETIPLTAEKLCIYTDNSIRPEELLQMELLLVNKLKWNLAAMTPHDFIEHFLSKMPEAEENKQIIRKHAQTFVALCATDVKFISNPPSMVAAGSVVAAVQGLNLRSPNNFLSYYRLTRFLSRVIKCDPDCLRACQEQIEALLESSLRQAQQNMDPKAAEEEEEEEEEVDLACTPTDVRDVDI
- experiment_description: NanoBRET Target Engagement (TE) Intracellular Kinase Assay, CDK4/CCND1
- Assay type: cell-based
- test_settings: NanoBRET TE intracellular kinase assay, 2-hour incubation, read-out: NanoBRET-CDK4/D1 IC50
endpoint_label: IC50 (nM)

Use the examples below as a reference point.
compound: COc1cc(O)c(C=O)c(OCC(=O)Nc2cc([C@H]3CC[C@@H](OC(=O)Nc4ccncc4)C3)[nH]n2)c1
measurement: 7920

compound: C#CC1(NC(=O)O[C@@H]2CC[C@H](c3cc(NC(=O)COc4cc(OC)cc(O)c4C=O)n[nH]3)C2)CC1
measurement: 2900

compound: COc1cc(O)c(C=O)c(OCC(=O)Nc2cc([C@H]3CC[C@@H](OC(=O)Nc4ccccc4)C3)[nH]n2)c1
measurement: 5880

compound: CC(C)NC(=O)O[C@@H]1CC[C@H](c2cc(NC(=O)C3Cc4ccc(O)c(C=O)c4O3)n[nH]2)C1 (stereo partly shown)
measurement: 7230

compound: CC(C)NC(=O)O[C@@H]1CC[C@H](c2cc(NC(=O)c3cc(-c4cccc(C=O)c4O)nn3C)n[nH]2)C1
measurement: 1610

A. CC(C)NC(=O)O[C@@H]1CC[C@H](c2cc(NC(=O)CSc3cccc(O)c3C=O)n[nH]2)C1
B. COc1cc(O)c(C=O)c(OCC(=O)Nc2cc([C@H]3CC[C@@H](OC(=O)N[C@@H](C)CC#N)C3)[nH]n2)c1
C. COc1cc(O)c(C=O)c(OCC(=O)Nc2cc([C@H]3CC[C@@H](OC(=O)N4CCCCC4)C3)[nH]n2)c1
D. COc1cc(O)c(C=O)c2c1CC(C(=O)Nc1cc([C@H]3CC[C@@H](OC(=O)N4CCCN4C)C3)[nH]n1)C2 (single isomer, unassigned) [Compound 263]
E. COc1cc(O)c(C=O)c2c1CC(C(=O)Nc1cc([C@H]3CC[C@@H](OC(=O)NN(C)C)C3)n[nH]1)C2 (single isomer, unassigned) [Compound 269]
IN: I would appreciate it if you could sort these 5 compounds by IC50, starting from the smallest number. Return the labels ranked in the requested order, please.
OUT: E, D, A, C, B

---

- assay_target: CDK4-NanoLuc fusion with CCND1 in 293T or 293 cells (Homo sapiens)
- Construct: host or cells: 293T (ATCC CRL-3216) or 293 (ATCC CRL-1573)
- experiment_description: NanoBRET Target Engagement (TE) Intracellular Kinase Assay, CDK4/CCND1
- Type: cell-based
- test_settings: NanoBRET TE intracellular kinase assay, 2-hour incubation, read-out: NanoBRET-CDK4/D1 IC50
endpoint_label: IC50 (nM)

The following compounds have reported results that may help.
compound: O=Cc1c(O)cc(Cl)cc1OCC(=O)Nc1cc([C@H]2CC[C@@H](OC(=O)N3C4COCC3C4)C2)[nH]n1 [Compound 183]
value_unit: nM
IC50: 4200
//
compound: COc1cc(O)c(C=O)c(OCc2cc(C(=O)Nc3cc([C@H]4CC[C@@H](OC(=O)NC(C)C)C4)[nH]n3)n(C)n2)c1 [Compound 77]
value_unit: nM
IC50: 44.3
//
compound: COc1cc(O)c(C=O)c(-c2cc(C(=O)Nc3cc([C@H]4CC[C@@H](OC(=O)NC(C)C)C4)[nH]n3)n(C)n2)c1 [Compound 48]
value_unit: nM
IC50: 848
//
compound: COc1cc(O)c(C=O)c(OCC(=O)Nc2cc([C@H]3CC[C@@H](OC(=O)N(C)CC(F)F)C3)[nH]n2)c1 [Compound 121]
value_unit: nM
IC50: 2440
//
compound: CC(C)NC(=O)O[C@@H]1CC[C@H](c2cc(NC(=O)c3cc(-c4cc(F)cc(O)c4C=O)nn3C)n[nH]2)C1 [Compound 42, trifluoroacetic acid]
value_unit: nM
IC50: 2680
//
compound: CC(C)NC(=O)O[C@@H]1CC[C@H](c2cc(NC(=O)c3cc(C(=O)Nc4ccccc4C=O)nn3C)n[nH]2)C1 [Compound 21]
value_unit: nM
IC50: 3900
//
compound: COc1cc(O)c(C=O)c(OCC(=O)Nc2cc([C@H]3CC[C@@H](OC(=O)NCC(F)F)C3)[nH]n2)c1 [Compound 142]
value_unit: nM
IC50: 7020

1. CC(C)NC(=O)O[C@@H]1CC[C@H](c2cc(NC(=O)c3ccc(O)c(C=O)c3)n[nH]2)C1 [Compound 3, trifluoroacetic acid]
2. COc1cc(O)c(C=O)c(OCC(=O)Nc2cc([C@H]3CC[C@@H](OC(=O)NCC4CCC4)C3)[nH]n2)c1 [Compound 178]
3. COc1cc(O)c(C=O)c(OCC(=O)Nc2cc([C@H]3CC[C@@H](OC(=O)NC4(C)CC4)C3)[nH]n2)c1 [Compound 251]
IN: Please produce an ascending ranking of these compounds based on IC50. Submit the labels in the order that the ranking request calls for.
OUT: 1, 3, 2
(1: 255 nM, 3: 966 nM, 2: 5600 nM)

---

- Tested on: Phospho-Rb Ser807/811 in OVCAR3 cells
- experiment_description: OVCAR3 Phospho-Rb Ser807/811 HTRF assay
- Assay type: cell-based
- test_settings: Homo sapiens, OVCAR-3, 1 h, OVCAR3 cells, Phospho-Rb Ser807/811 HTRF, 1 hour incubation; read-out: pRb-OVCAR3 IC50
endpoint_label: IC50 (nM)

structure: COc1cc(O)c(C=O)c(OCC(=O)Nc2cc([C@H]3CC[C@@H](OC(=O)NCCOC(F)(F)F)C3)n[nH]2)c1
IC50 [nM]: 22

structure: COc1cc(O)c(C=O)c(OCC(=O)Nc2cc([C@H]3C[C@@H](OC(=O)N4CCCC4)C3)[nH]n2)c1
IC50 [nM]: 149

structure: CC(C)NC(=O)O[C@@H]1CC[C@H](c2cc(NC(=O)c3cc(Oc4cccc(O)c4C=O)nn3C)n[nH]2)C1
IC50 [nM]: 941

structure: COc1cc(O)c(C=O)c(OCC(=O)Nc2cc([C@H]3CC[C@@H](OC(=O)N4C[C@@H]5CC[C@H]4CO5)C3)[nH]n2)c1
IC50 [nM]: 70

P. COc1cccc(-c2cc(C(=O)Nc3cc([C@H]4CC[C@@H](OC(=O)NC(C)C)C4)[nH]n3)n(C)n2)c1C=O
Q. Cc1cc(O)c(C=O)c(OCC(=O)Nc2cc([C@H]3CC[C@@H](OC(=O)NC4(C#N)CC4)C3)[nH]n2)c1
R. COc1cc(OC)c(C=O)c(OCC(=O)Nc2cc([C@H]3CC[C@@H](OC(=O)NC(C)C)C3)[nH]n2)c1
IN: Put the molecules in ascending order of IC50. The labels, placed in the requested order, form the answer.
OUT: R, Q, P
